System: SUM149PT spheroids with HUVEC/MSC, viability
PROTOCOL: Anticancer human tumor SUM149PT cell line growth inhibition [GQUAD];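 note: spheroids exposed to drugs for seven days before readout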;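 for viability, T/C: percent viability relative to DMSO vehicle control taken as 100%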
COND: second compound 1 µM; first compound 1 µM; stronger effect = lower value
# strict inequality: viability, T/C < 30% yields rule met, everything else yields rule not met

Example cases with answers are listed next.
>  <MOLECULE>
CC1COCCN1c1cc(C2(O)CC3CCC(C2)O3)c2cnn(-c3ccn[nH]3)c2n1 (stereo not given) + Cc1[nH]c2ccc(F)cc2c1-c1nc2c3cccnc3c3ncccc3c2[nH]1

>  <MEASURED_TARGET>
SUM149PT spheroids with HUVEC/MSC, viability

>  <CLASS_NAME>
rule met

$$$$
>  <MOLECULE>
CC(=O)O[C@H]1C(=O)[C@@]2(C)[C@H]([C@H](OC(=O)c3ccccc3)[C@]3(O)C[C@H](OC(=O)[C@H](O)[C@@H](NC(=O)c4ccccc4)c4ccccc4)C(C)=C1C3(C)C)[C@]1(OC(C)=O)CO[C@@H]1C[C@@H]2O + Cc1cnc(CNC(=O)c2c(=O)c3ccc(N4CCCN(C)CC4)nc3n3c2sc2ccccc23)cn1

>  <MEASURED_TARGET>
SUM149PT spheroids with HUVEC/MSC, viability

>  <CLASS_NAME>
rule met

$$$$
>  <MOLECULE>
Cc1cccc(N(C)C(=O)C2C(O)CCN2c2nc(C)cc(C(F)(F)F)c2C#N)c1 (stereo not given) + Cc1[nH]c2ccc(F)cc2c1-c1nc2c3cccnc3c3ncccc3c2[nH]1

>  <MEASURED_TARGET>
SUM149PT spheroids with HUVEC/MSC, viability

>  <CLASS_NAME>
rule not met

$$$$
>  <MOLECULE>
CC1COCCN1c1cc(C2(S(C)(=N)=O)CC2)nc(-c2ccnc3[nH]ccc23)n1 (stereo not given) + Cc1cnc(CNC(=O)c2c(=O)c3ccc(N4CCCN(C)CC4)nc3n3c2sc2ccccc23)cn1

>  <MEASURED_TARGET>
SUM149PT spheroids with HUVEC/MSC, viability

>  <CLASS_NAME>
rule not met

$$$$

Please let me know if CC(C)n1c(=O)n(C)c2cnc3cc(F)c(-c4ccc(OCCCN5CCCCC5)nc4)cc3c21 + Cc1[nH]c2ccc(F)cc2c1-c1nc2c3cccnc3c3ncccc3c2[nH]1 shows viability, T/C below 30%.
rule not met

----------
Tested on: SUM149PT spheroids with HUVEC/MSC, viability
PROTOCOL: Anticancer human tumor SUM149PT cell line growth inhibition [GQUAD];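 note: spheroids exposed to drugs for seven days before readout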;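 for viability, T/C: percent viability relative to DMSO vehicle control taken as 100%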
COND: second compound 0.1 µM; first compound 0.0316 µM; stronger effect = lower value
Items are presented alongside their recorded viability, T/C.

Consider the reported viability, T/C for these compounds:
>  <COMPOUND>
CC(C)(O)C1CCC(Nc2ccc3ncc(-c4cccc(C(F)(F)F)c4)n3n2)CC1 (stereo unspecified) + Cc1[nH]c2ccc(F)cc2c1-c1nc2c3cccnc3c3ncccc3c2[nH]1

>  <viability, T/C>
90.9%

$$$$
>  <COMPOUND>
CC(=O)O[C@H]1C(=O)[C@@]2(C)[C@H]([C@H](OC(=O)c3ccccc3)[C@]3(O)C[C@H](OC(=O)[C@H](O)[C@@H](NC(=O)c4ccccc4)c4ccccc4)C(C)=C1C3(C)C)[C@]1(OC(C)=O)CO[C@@H]1C[C@@H]2O + CN(C)c1ccc(Nc2c3ccc(NC(=O)CCN4CCCC4)cc3nc3cc(NC(=O)CCN4CCCC4)ccc23)cc1

>  <viability, T/C>
32.8%

$$$$

Determine reported viability, T/C for C=CCn1c(=O)c2cnc(Nc3ccc(N4CCN(C)CC4)cc3)nc2n1-c1cccc(C(C)(C)O)n1 + CN(C)c1ccc(Nc2c3ccc(NC(=O)CCN4CCCC4)cc3nc3cc(NC(=O)CCN4CCCC4)ccc23)cc1 ; test system: SUM149PT spheroids with HUVEC/MSC, viability.
92.8%

Determine reported viability, T/C for O=c1[nH]cc(F)c(=O)[nH]1 + CN(C)c1ccc(Nc2c3ccc(NC(=O)CCN4CCCC4)cc3nc3cc(NC(=O)CCN4CCCC4)ccc23)cc1 ; test system: SUM149PT spheroids with HUVEC/MSC, viability.
100%

Determine reported viability, T/C for Cc1cccc(N(C)C(=O)C2C(O)CCN2c2nc(C)cc(C(F)(F)F)c2C#N)c1 (stereo unspecified) + Cc1[nH]c2ccc(F)cc2c1-c1nc2c3cccnc3c3ncccc3c2[nH]1 ; test system: SUM149PT spheroids with HUVEC/MSC, viability.
102%

Determine reported viability, T/C for C=CCn1c(=O)c2cnc(Nc3ccc(N4CCN(C)CC4)cc3)nc2n1-c1cccc(C(C)(C)O)n1 + Cc1[nH]c2ccc(F)cc2c1-c1nc2c3cccnc3c3ncccc3c2[nH]1 ; test system: SUM149PT spheroids with HUVEC/MSC, viability.
91.1%

Determine reported viability, T/C for CC(=O)O[C@H]1C(=O)[C@@]2(C)[C@H]([C@H](OC(=O)c3ccccc3)[C@]3(O)C[C@H](OC(=O)[C@H](O)[C@@H](NC(=O)c4ccccc4)c4ccccc4)C(C)=C1C3(C)C)[C@]1(OC(C)=O)CO[C@@H]1C[C@@H]2O + Cc1cnc(CNC(=O)c2c(=O)c3ccc(N4CCCN(C)CC4)nc3n3c2sc2ccccc23)cn1 ; test system: SUM149PT spheroids with HUVEC/MSC, viability.
26.2%

Determine reported viability, T/C for COc1ccc([C@@H](O)c2cc(-c3ncnc4cc(N5CCOCC5)ccc34)c(F)cc2Cl)nn1 + Cc1[nH]c2ccc(F)cc2c1-c1nc2c3cccnc3c3ncccc3c2[nH]1 ; test system: SUM149PT spheroids with HUVEC/MSC, viability.
92.9%

----------
Test system: SUM149PT spheroids with HUVEC/MSC, viability
PROTOCOL: Anticancer human tumor SUM149PT cell line growth inhibition [GQUAD];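 note: spheroids exposed to drugs for seven days before readout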
COND: curve of first compound; second compound 1 µM
MEASURED_QUANTITY: log10 IC50 (log10 of the value in nM)
Parameter value (number): base-10 log of IC50 in nM.

Consider the reported log10 IC50 for these compounds:
>  <COMPOUND>
COc1cccc2c1C(=O)c1c(O)c3c(c(O)c1C2=O)CC(O)(C(=O)CO)CC3OC1CC(N)C(O)C(C)O1 (stereo unspecified) + CN(C)c1ccc(Nc2c3ccc(NC(=O)CCN4CCCC4)cc3nc3cc(NC(=O)CCN4CCCC4)ccc23)cc1

>  <MEASURED_TARGET>
SUM149PT spheroids with HUVEC/MSC, viability

>  <log10 IC50>
2.20

$$$$
>  <COMPOUND>
O=C(NO)c1cnc(N2CCN(S(=O)(=O)c3ccc4ccccc4c3)CC2)nc1 + Cc1[nH]c2ccc(F)cc2c1-c1nc2c3cccnc3c3ncccc3c2[nH]1

>  <MEASURED_TARGET>
SUM149PT spheroids with HUVEC/MSC, viability

>  <log10 IC50>
2.79

$$$$
>  <COMPOUND>
COc1ccc([C@@H](O)c2cc(-c3ncnc4cc(N5CCOCC5)ccc34)c(F)cc2Cl)nn1 + Cc1[nH]c2ccc(F)cc2c1-c1nc2c3cccnc3c3ncccc3c2[nH]1

>  <MEASURED_TARGET>
SUM149PT spheroids with HUVEC/MSC, viability

>  <log10 IC50>
3.06

$$$$
>  <COMPOUND>
CC(C)(O)C1CCC(Nc2ccc3ncc(-c4cccc(C(F)(F)F)c4)n3n2)CC1 (stereo unspecified) + CN(C)c1ccc(Nc2c3ccc(NC(=O)CCN4CCCC4)cc3nc3cc(NC(=O)CCN4CCCC4)ccc23)cc1

>  <MEASURED_TARGET>
SUM149PT spheroids with HUVEC/MSC, viability

>  <log10 IC50>
3.19

$$$$
>  <COMPOUND>
COc1cc(C2c3cc4c(cc3C(OC3OC5COC(C)OC5C(O)C3O)C3COC(=O)C23)OCO4)cc(OC)c1O (stereo unspecified) + Cc1[nH]c2ccc(F)cc2c1-c1nc2c3cccnc3c3ncccc3c2[nH]1

>  <MEASURED_TARGET>
SUM149PT spheroids with HUVEC/MSC, viability

>  <log10 IC50>
2.92

$$$$

Assign log10 IC50 to the following record: CC1COCCN1c1cc(-c2ccnn2C)c2ccnc(-c3ccn[nH]3)c2n1 (stereo unspecified) + CN(C)c1ccc(Nc2c3ccc(NC(=O)CCN4CCCC4)cc3nc3cc(NC(=O)CCN4CCCC4)ccc23)cc1
1.95

Assign log10 IC50 to the following record: Cc1[nH]c2ccccc2c1CCNCc1ccc(/C=C/C(=O)NO)cc1 + CN(C)c1ccc(Nc2c3ccc(NC(=O)CCN4CCCC4)cc3nc3cc(NC(=O)CCN4CCCC4)ccc23)cc1
2.31

Assign log10 IC50 to the following record: CC1COCCN1c1cc(C2(S(C)(=N)=O)CC2)nc(-c2ccnc3[nH]ccc23)n1 (stereo unspecified) + CN(C)c1ccc(Nc2c3ccc(NC(=O)CCN4CCCC4)cc3nc3cc(NC(=O)CCN4CCCC4)ccc23)cc1
3.35

Assign log10 IC50 to the following record: COc1ccc([C@@H](O)c2cc(-c3ncnc4cc(N5CCOCC5)ccc34)c(F)cc2Cl)nn1 + CN(C)c1ccc(Nc2c3ccc(NC(=O)CCN4CCCC4)cc3nc3cc(NC(=O)CCN4CCCC4)ccc23)cc1
3.01

Assign log10 IC50 to the following record: C=CCn1c(=O)c2cnc(Nc3ccc(N4CCN(C)CC4)cc3)nc2n1-c1cccc(C(C)(C)O)n1 + Cc1[nH]c2ccc(F)cc2c1-c1nc2c3cccnc3c3ncccc3c2[nH]1
2.26

Assign log10 IC50 to the following record: CC[C@@]1(O)C(=O)OCc2c1cc1n(c2=O)Cc2cc3c(CN(C)C)c(O)ccc3nc2-1 + CN(C)c1ccc(Nc2c3ccc(NC(=O)CCN4CCCC4)cc3nc3cc(NC(=O)CCN4CCCC4)ccc23)cc1
2.31

Assign log10 IC50 to the following record: CC1COCCN1c1cc(C2(O)CC3CCC(C2)O3)c2cnn(-c3ccn[nH]3)c2n1 (stereo unspecified) + CN(C)c1ccc(Nc2c3ccc(NC(=O)CCN4CCCC4)cc3nc3cc(NC(=O)CCN4CCCC4)ccc23)cc1
1.81

Assign log10 IC50 to the following record: Nc1ccn(C2OC(CO)C(O)C2(F)F)c(=O)n1 (stereo unspecified) + Cc1[nH]c2ccc(F)cc2c1-c1nc2c3cccnc3c3ncccc3c2[nH]1
1.88

Assign log10 IC50 to the following record: C#Cc1c(F)ccc2cc(O)cc(-c3ncc4c(N5CC6CCC(C5)N6)nc(OCC56CCCN5CC(F)C6)nc4c3F)c12 (stereo unspecified) + CN(C)c1ccc(Nc2c3ccc(NC(=O)CCN4CCCC4)cc3nc3cc(NC(=O)CCN4CCCC4)ccc23)cc1
3.66

Assign log10 IC50 to the following record: O=c1[nH]cc(F)c(=O)[nH]1 + CN(C)c1ccc(Nc2c3ccc(NC(=O)CCN4CCCC4)cc3nc3cc(NC(=O)CCN4CCCC4)ccc23)cc1
3.94
